B1: Connector enhancer of kinase suppressor of ras 2, residues 9 to 71; numbered along this chain, Q8WXI2 (parent)
chain: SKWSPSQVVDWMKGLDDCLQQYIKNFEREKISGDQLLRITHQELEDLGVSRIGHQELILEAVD

Variants of: B1
Assay: abundance fitness (aPCA) (normalised: wild type 0, dead -1); higher = more abundant; growth selection in yeast, the domain comes from the species named
Conditions: Homo sapiens
Decision: abundance fitness compared against -0.1; not below it gives Condition met, below it gives Condition not met.

Variant label: L44T
Class label: Condition not met
--
Variant label: D17R
Class label: Condition not met
--
Variant label: S50T
Class label: Condition met
--
Variant label: V49I
Class label: Condition met
--
Variant label: I23D
Class label: Condition not met
--
Variant label: Q42E
Class label: Condition not met
--
Variant label: H54G
Class label: Condition not met
--
Variant label: L36F
Class label: Condition not met
--
Variant label: I52V
Class label: Condition met
--
Variant label: S32Y
Class label: Condition not met
--
Variant label: D63A
Class label: Condition met
--
Variant label: H54K
Class label: Condition not met
--
Variant label: E43K
Class label: Condition met
--
Variant label: Q55V
Class label: Condition not met
--
Variant label: L37T
Class label: Condition not met
--
Variant label: V62L
Class label: Condition not met
--
Variant label: E56S
Class label: Condition not met
--
Variant label: E27D
Class label: Condition not met
--
Variant label: C18Y
Class label: Condition not met
--
Variant label: L57N
Class label: Condition not met
--
Variant label: Y22K
Class label: Condition not met
--
Variant label: I31V
Class label: Condition met
--
Variant label: Q20K
Class label: Condition not met
--
Variant label: H41G
Class label: Condition met
--
Variant label: E29K
Class label: Condition met
--
Variant label: L47P
Class label: Condition not met
--
Variant label: D34Y
Class label: Condition not met
--
Variant label: G33S
Class label: Condition not met
--
Variant label: L44G
Class label: Condition not met
--
Variant label: E43D
Class label: Condition met
--
Variant label: I23S
Class label: Condition not met
--
Variant label: Q55L
Class label: Condition not met
--
Variant label: L15Q
Class label: Condition not met
--
Variant label: Q21W
Class label: Condition not met
--
Variant label: I31D
Class label: Condition not met
--
Variant label: D17F
Class label: Condition not met
--
Variant label: D16R
Class label: Condition not met
--
Variant label: G48I
Class label: Condition not met
--
Variant label: L37S
Class label: Condition met
--
Variant label: I52P
Class label: Condition met
--
Variant label: I31A
Class label: Condition not met
--
Variant label: I58A
Class label: Condition not met
--
Variant label: V49L
Class label: Condition not met
--
Variant label: L59F
Class label: Condition not met
--
Variant label: R28V
Class label: Condition not met
